Test system: formalin-induced flinching
measurement_protocol: animal or person
Format: in vivo, male Sprague-Dawley rats
applied_conditions: rat, in vivo
Form field: Late Phase Formalin (i. paw), % @ 300 (one value per entry).
outcome_measure: Late Phase Formalin (i. paw), % @ 300 (% @ 300)

* COc1cc(CC(=O)N(C)[C@H](CN2CCCC2)c2ccccc2)c(S(=O)(=O)N2CCCC2)cc1OC | 99
* CNS(=O)(=O)c1cc(OC)ccc1CC(=O)N(C)[C@H](CN1CCCC1)c1ccccc1 | 83
* CNS(=O)(=O)c1ccc(CC(=O)N(C)[C@H](CN2CC[C@H](O)C2)c2ccccc2)cc1 | 52
* COc1cc(CC(=O)N(C)[C@H](CN2CC[C@H](O)C2)c2ccccc2)c(S(=O)(=O)N2CCOCC2)cc1OC | 98

====

Counter-ions that a name gives are not always drawn.
Entries and their measured melting point follow.
outcome_measure: melting point

- CN(C(=O)Cc1ccccc1NS(C)(=O)=O)[C@H](CN1CCCC1)c1cccc(NS(C)(=O)=O)c1 (as salt: hydrochloride): 160 °C (dec.)
- CN(C(=O)Cc1ccc(Cl)c(Cl)c1)[C@H](CN1CCCC1)c1cccc(NC(=O)CCC(=O)NCC(=O)O)c1 (as salt: hydrochloride): 158 °C (dec.)
- CC(=O)N1CCN(C(=O)Cc2ccccc2[N+](=O)[O-])C(CN2CCCC2)C1 (racemic) (as salt: hydrochloride) [(R,S-10e)]: 180 °C (dec.)
- CN(C(=O)Cc1ccc(C(F)(F)F)cc1NS(C)(=O)=O)[C@H](CN1CC[C@H](O)C1)c1ccccc1 (as salt: HCl): 178 to 181 °C
- COc1cc(CC(=O)N(C)[C@H](CN2CC[C@H](O)C2)c2ccccc2)c(S(=O)(=O)N2CCN(C)CC2)cc1OC (as salt: HCl): 168 to 171 °C
- COc1ccc(C(CN2CCCC2)N(C)C(=O)Cc2ccccc2NS(C)(=O)=O)cc1 (racemic) (as salt: salt): 170 to 172 °C
- Cl.NS(=O)(=O)N1CCN(C(=O)Cc2ccc(Cl)c(Cl)c2)[C@H](CN2CCCC2)C1: 183 to 185 °C
- COc1cc(CC(=O)N(C)[C@H](CN2CC[C@H](O)C2)c2ccccc2)c(S(=O)(=O)N2CCCC2)cc1OC (as salt: salt): > 120 °C (dec.)
- CS(=O)(=O)N1CCN(C(=O)Cc2c[nH]c3ccccc23)C(CN2CCCC2)C1 (racemic) (as salt: hydrochloride) [(R,S-8e)]: 219 to 221 °C
- COc1cc(CC(=O)N(C)[C@H](CN2CCCC2)c2ccccc2)c(S(=O)(=O)N2CCN(C)CC2)cc1OC (as salt: HCl): 255 to 257 °C (dec.)
- CNS(=O)(=O)c1cccc(CC(=O)N(C)[C@@H]2CCCC[C@H]2N2CCCC2)c1OC.Cl (racemic): 168 to 170 °C
- CN(C(=O)Cc1cc(Cl)c(Cl)cc1NC(=O)/C=C\C(=O)O)[C@H]1CCCC[C@@H]1N1CCCC1 (racemic): 246 to 248 °C (dec.)
- COc1ccc(CC(=O)N(C)[C@H](CN2CC[C@H](O)C2)c2ccccc2)cc1NS(C)(=O)=O (as salt: HCl): 148 to 151 °C
- COC(=O)N1CCN(C(=O)Cc2ccc(S(C)(=O)=O)cc2)C(CN2CCCC2)C1 (racemic) (as salt: hydrochloride) [(R,S-9a)]: 225 °C
- Cl.O=CN1CCN(C(=O)Cc2ccc(Cl)c(Cl)c2)[C@H](CN2CCCC2)C1 [(R-3j)]: 126 °C (dec.)
- CN(C(=O)Cc1ccc(O)c(NS(C)(=O)=O)c1)[C@H](CN1CCCC1)c1ccccc1 (as salt: HCl): 228 to 230 °C
- CN(C(=O)Cc1cc2c(cc1S(=O)(=O)N(C)Cc1ccccc1)OCO2)[C@H](CN1CCCC1)c1ccccc1 (as salt: salt): 236 to 238 °C
- CN(C(=O)C(c1ccccc1)c1ccccc1)[C@@H]1c2ccccc2C[C@H]1N1CCCC1 (racemic) (as salt: HCl): > 300 °C
- CN(C(=O)Cc1ccc(O)c(N(S(C)(=O)=O)S(C)(=O)=O)c1)[C@H](CN1CCCC1)c1ccccc1 (as salt: salt): 197 to 199 °C
- CS(=O)(=O)c1ccc(CC(=O)N2CCN(S(C)(=O)=O)CC2CN2CCCC2)cc1 (racemic) (as salt: hydrochloride) [(R,S-8b)]: 185 to 188 °C
- Cc1ccc(S(=O)(=O)N2CCN(C(=O)Cc3ccc(Cl)c(Cl)c3)[C@H](CN3CCCC3)C2)cc1 (as salt: hydrochloride) [(R-3l)]: 240 °C (dec.)
- O=C(Cc1ccc(C(F)(F)F)cc1)N1CCN(C(=O)C(F)(F)F)CC1CN1CCCC1 (racemic) (as salt: hydrochloride): 140 to 145 °C
- COC(=O)N1CCN(C(=O)Cc2ccccc2N)C(CN2CCCC2)C1 (racemic) (as salt: hydrochloride) [(R,S-9f), dihydrochloride]: 195 °C (dec.)
- CN(C(=O)Cc1ccc(S(C)(=O)=O)cc1)[C@@H]1c2ccccc2C[C@H]1N1CCCC1 (racemic) (as salt: HCl): 246 to 248 °C
- CN(C(=O)Cc1cc(Cl)c(Cl)cc1[N+](=O)[O-])[C@H](CN1CCCC1)c1cccc([N+](=O)[O-])c1 (as salt: HCl): 165 °C (dec.)
- CN(C(=O)Cc1ccc(Cl)c(S(N)(=O)=O)c1)[C@H](CN1CCCC1)c1ccccc1.CS(=O)(=O)O: 220 to 222 °C

====

Where a name gives a salt, the structure may show the parent alone.
outcome_measure: melting point

* CNS(=O)(=O)c1ccccc1CC(=O)N(C)C(CN1CCCC1)c1ccccc1F (racemic) (as salt: salt) | 232 to 234 °C
* CN(C(=O)Cc1ccc(Cl)c(Cl)c1)[C@H](CN1CCCC1)c1cccc(NS(C)(=O)=O)c1.Cl | 240 to 242 °C
* CN(C(=O)C(c1ccccc1)c1ccccc1)C1CCCCC1N1CCCC1 (racemic) (as salt: HCl) | 295 to 297 °C (dec.)
* CN(C(=O)Cc1ccccc1NS(C)(=O)=O)C(CN1CCCC1)c1cccc(O)c1 (racemic) (as salt: sulfonic acid salt) | 232 to 234 °C
* COc1cc(CC(=O)N(C)[C@H](CN2CCCC2)c2ccccc2)c(S(=O)(=O)N2CCOCC2)cc1OC (as salt: HCl) | 229 to 231 °C
* COC(=O)N1CCN(C(=O)Cc2ccc(C(F)(F)F)cc2)C(CN2CCCC2)C1 (racemic) (as salt: hydrochloride) [(R,S-9b)] | 210 °C
* CS(=O)(=O)N1CCN(C(=O)Cc2ccc(Cl)c(Cl)c2)[C@H](CN2CCCC2)C1.Cl [(R-3a)] | 130 to 132 °C
* CN(C(=O)Cc1ccc(N)cc1)[C@H](CN1CCCC1)c1cccc([N+](=O)[O-])c1 (as salt: HCl) | 200 °C (dec.)
* CN(C(=O)Cc1ccccc1[N+](=O)[O-])[C@H](CN1CCCC1)c1cccc([N+](=O)[O-])c1 (as salt: HCl) | 258 to 259 °C
* Cl.O=C(Cc1ccc(Cl)c(Cl)c1)N1CCN(Cc2ccccc2)C[C@H]1CN1CCCC1 [(R-1)] | 168 to 170 °C
* CC(=O)N1CCN(C(=O)Cc2ccc(S(C)(=O)=O)cc2)C(CN2CCCC2)C1 (racemic) (as salt: hydrochloride) [(R,S-10a)] | 145 to 147 °C
* CN(C(=O)Cc1ccc(Cl)c(Cl)c1)[C@@H]1c2cc(S(=O)(=O)N(C)Cc3ccccc3)ccc2CC[C@H]1N1CCCC1 (racemic) (as salt: HCl) | 251 to 254 °C
* CC(=O)N1CCN(C(=O)Cc2cccc([N+](=O)[O-])c2)C(CN2CCCC2)C1 (racemic) (as salt: hydrochloride) [(R,S-10d)] | 143 to 145 °C
* CNS(=O)(=O)c1ccc(CC(=O)N2CCN(C(=O)OC)CC2CN2CCCC2)cc1 (racemic) (as salt: hydrochloride) | 135 to 140 °C

====

Counter-ions that a name gives are not always drawn.
outcome_measure: melting point

• COc1cccc(C(CN2CCCC2)N(C)C(=O)Cc2ccccc2NS(C)(=O)=O)c1 (racemic) (as salt: sulfonic acid salt) [Example 3uu] = 135 °C (dec.)
• COc1ccc(CC(=O)N(C)[C@H](CN2CCCC2)c2ccccc2)cc1NS(C)(=O)=O (as salt: methane sulfonate) [Example 122] = 149 to 151 °C
• CN(C(=O)Cc1ccc(C(F)(F)F)cc1NCC(=O)O)C1CCCCC1N1CCCC1 (centres unmarked) (as salt: HCl) = 178 to 180 °C (dec.)
• COC(=O)N1CCN(C(=O)Cc2ccc(C(F)(F)F)cc2N(S(C)(=O)=O)S(C)(=O)=O)C(CN2CCCC2)C1 (racemic) (as salt: hydrochloride) [Example 1b, dihydrochloride] = 155 to 160 °C
• CNS(=O)(=O)c1ccccc1CC(=O)N1CCN(C(=O)OC)CC1CN1CCCC1 (racemic) (as salt: hydrochloride) [Example 1e] = 155 to 160 °C
• CN(C(=O)Cc1ccc(S(C)(=O)=O)cc1)[C@H](CN1CCCC1)c1cccc(NS(C)(=O)=O)c1.CS(=O)(=O)O [Example 3e] = 140 to 142 °C
• CCOP(=O)(OCC)N1CCN(C(=O)Cc2ccc(Cl)c(Cl)c2)[C@H](CN2CCCC2)C1 (as salt: hydrochloride) [(R-3g)] = 168 to 170 °C
• CN(C(=O)Cc1ccc(S(C)(=O)=O)cc1)[C@H](CN1CCCC1)c1cccc([N+](=O)[O-])c1 (as salt: HCl) = 276 to 277 °C
• CN(C(=O)Cc1ccc(Cl)c(Cl)c1)[C@H](CN1CCCC1)c1cccc(NC(=O)/C=C\C(=O)O)c1 [Example 3h] = 174 to 176 °C
• CN(C(=O)Cc1ccc(C(F)(F)F)cc1[N+](=O)[O-])[C@@H]1c2ccccc2C[C@H]1N1CCCC1 (racemic) (as salt: HCl) = 249 to 250 °C
• COc1cc(CC(=O)N(C)[C@H](CN2CC[C@H](O)C2)c2ccccc2)cc(OC)c1OC.Cl = 230 to 232 °C
• COc1cc(CC(=O)N(C)[C@H](CN2CCCC2)c2ccccc2)c(S(=O)(=O)N(C)C)cc1OC (as salt: HCl) [Example 136] = 246 to 248 °C
• COc1cc(CC(=O)N(C)[C@H](CN2CC[C@H](O)C2)c2ccccc2)c(S(=O)(=O)N2CCOCC2)cc1OC (as salt: HCl) [Example 141] = 158 to 161 °C
• CN(C(=O)Cc1ccccc1N)[C@H](CN1CCCC1)c1cccc(N)c1 (as salt: HCl) = 219 to 222 °C
